target: α7-type neuronal nicotinic acetylcholine receptors (Rattus norvegicus, UniProt Q05941); construct: The brain tissue was homogenized with a Tekmar Polytron; from tissue; host or cells: rat brain membranes (whole brain without cortex and cerebellum); assay: Inhibition of [^3H]methyllycaconitine (MLA) binding to rat brain membranes; conditions: % inhibition at 100 nM analog; 3 nM [^3H]MLA; nonspecific 10 μM nicotine; 3-4 independent experiments
Sequence (Q05941 23-502): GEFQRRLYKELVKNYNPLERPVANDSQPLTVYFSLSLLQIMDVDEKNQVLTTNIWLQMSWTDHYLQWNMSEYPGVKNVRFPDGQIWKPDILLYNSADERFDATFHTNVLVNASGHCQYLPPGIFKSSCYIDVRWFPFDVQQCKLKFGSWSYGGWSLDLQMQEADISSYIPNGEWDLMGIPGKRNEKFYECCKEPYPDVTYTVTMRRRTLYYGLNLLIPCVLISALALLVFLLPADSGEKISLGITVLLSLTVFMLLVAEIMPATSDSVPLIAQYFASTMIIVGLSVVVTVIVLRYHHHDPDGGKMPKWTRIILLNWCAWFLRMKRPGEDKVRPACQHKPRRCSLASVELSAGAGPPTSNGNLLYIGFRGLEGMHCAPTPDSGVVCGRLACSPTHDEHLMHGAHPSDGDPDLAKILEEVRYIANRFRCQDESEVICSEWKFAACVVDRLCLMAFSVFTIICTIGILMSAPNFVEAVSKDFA
Inhibition of [^3H]MLA binding vs 20%: at or above is True, below is False.

>  <MOLECULE>
Cc1cc(C)c[n+](CCCCCc2cc(CCCCC[n+]3cc(C)cc(C)c3)c(CCCCC[n+]3cc(C)cc(C)c3)cc2CCCCC[n+]2cc(C)cc(C)c2)c1.[Br-].[Br-].[Br-].[Br-]

>  <CATEGORY LABEL>
False

$$$$
>  <MOLECULE>
Cc1cc(C)c[n+](CCCC#Cc2cc(C#CCCC[n+]3cc(C)cc(C)c3)c(C#CCCC[n+]3cc(C)cc(C)c3)cc2C#CCCC[n+]2cc(C)cc(C)c2)c1.[Br-].[Br-].[Br-].[Br-]

>  <CATEGORY LABEL>
False

$$$$
>  <MOLECULE>
Cc1ccc[n+](CCCCCc2cc(CCCCC[n+]3cccc(C)c3)c(CCCCC[n+]3cccc(C)c3)cc2CCCCC[n+]2cccc(C)c2)c1.[Br-].[Br-].[Br-].[Br-]

>  <CATEGORY LABEL>
False

$$$$
>  <MOLECULE>
C(#Cc1cc(C#CCCC[n+]2ccc3ccccc3c2)c(C#CCCC[n+]2ccc3ccccc3c2)cc1C#CCCC[n+]1ccc2ccccc2c1)CCC[n+]1ccc2ccccc2c1.[Br-].[Br-].[Br-].[Br-]

>  <CATEGORY LABEL>
False

$$$$
>  <MOLECULE>
C(#Cc1cc(C#CCCC[n+]2cccc(-c3ccccc3)c2)c(C#CCCC[n+]2cccc(-c3ccccc3)c2)cc1C#CCCC[n+]1cccc(-c2ccccc2)c1)CCC[n+]1cccc(-c2ccccc2)c1.[Br-].[Br-].[Br-].[Br-]

>  <CATEGORY LABEL>
True

$$$$
>  <MOLECULE>
[Br-].[Br-].[Br-].[Br-].c1ccc(Cc2ccc[n+](CCCCCc3cc(CCCCC[n+]4cccc(Cc5ccccc5)c4)c(CCCCC[n+]4cccc(Cc5ccccc5)c4)cc3CCCCC[n+]3cccc(Cc4ccccc4)c3)c2)cc1

>  <CATEGORY LABEL>
False

$$$$
>  <MOLECULE>
Cc1cc[n+](CCCC#Cc2cc(C#CCCC[n+]3ccc(C)c(C)c3)c(C#CCCC[n+]3ccc(C)c(C)c3)cc2C#CCCC[n+]2ccc(C)c(C)c2)cc1C.[Br-].[Br-].[Br-].[Br-]

>  <CATEGORY LABEL>
False

$$$$
>  <MOLECULE>
CN1CCCC1c1ccc[n+](CCCCCc2cc(CCCCC[n+]3cccc(C4CCCN4C)c3)c(CCCCC[n+]3cccc(C4CCCN4C)c3)cc2CCCCC[n+]2cccc(C3CCCN3C)c2)c1.[Br-].[Br-].[Br-].[Br-] (stereo not shown)

>  <CATEGORY LABEL>
True

$$$$
>  <MOLECULE>
OCCCc1ccc[n+](CCCC#Cc2cc(C#CCCC[n+]3cccc(CCCO)c3)c(C#CCCC[n+]3cccc(CCCO)c3)cc2C#CCCC[n+]2cccc(CCCO)c2)c1.[Br-].[Br-].[Br-].[Br-]

>  <CATEGORY LABEL>
False

$$$$
